test system: SW-620 colon; assay: NCI-60 one-dose screen, 48 h (100 = growth as untreated, 0 = no growth, -100 = all killed); settings: 10 µM unless noted
This is part of a sample that, as a whole, favours compounds with a hit. Of some 83,000 tested, about 20% had one in any assay.
Reported Endpoint: growth (%)
Give the number; % is assumed, so skip it.

Some solved cases for reference:
{"Compound": "Clc1cccc(Nc2ncnc3ccc(-c4cncc(-n5cnnn5)c4)cc23)c1", "Reported Endpoint": "growth", "Unit Spec": "%", "Recorded Result": 96.8}
{"Compound": "CC1(C)C(N)=Nc2cc(OCCCN3Cc4ccc(OCCc5cn(CC(=O)N6CCC(CCN7CCCC7)CC6)nn5)cc4C3)c(OCC3CC3)cc21", "Reported Endpoint": "growth", "Unit Spec": "%", "Recorded Result": 109}
{"Compound": "CC[C@]12CN3CCc4c([nH]c5ccccc45)[C@@](C(=O)OC)(c4cc5c(cc4OC)N(C)[C@H]4[C@@](O)(C(=O)OC)[C@H](OC(C)=O)[C@]6(CC)C=CCN7CC[C@]54[C@@H]76)CC(C3)[C@H]1O2 (stereo not given in full)", "Reported Endpoint": "growth", "Unit Spec": "%", "Recorded Result": 17.1}
{"Compound": "COc1ccc(C2Nc3nc(SC)nc(N)c3N=C3c4ccccc4CCC32)cc1 (stereo not given)", "Reported Endpoint": "growth", "Unit Spec": "%", "Recorded Result": 76.1}
{"Compound": "COc1cc(/C=C/C(=O)c2ccc(NC(=O)CSc3nnc(-c4cc(-c5ccccc5)nc5ccccc45)n3-c3ccccc3)cc2)cc(OC)c1OC", "Reported Endpoint": "growth", "Unit Spec": "%", "Recorded Result": 90.5}

Query: Look at this compound and give its reported growth. COc1cc(CNC(=O)CCCC/C=C/C(C)C)ccc1OCc1cn(-c2ccc([N+](=O)[O-])cc2)nn1
Reply: 99.8

Query: Look at this compound and give its reported growth. BrC1=C(Br)C(Br)(Br)C(Br)=C1Br
Reply: 80.1

Query: Look at this compound and give its reported growth. COc1cc2ncnc(Nc3ccc(F)c(Cl)c3)c2cc1OCC(=O)N1CCCCC1
Reply: 104

Query: Look at this compound and give its reported growth. OCc1cc(CN2CCCCC2)c(O)c2ncccc12
Reply: 39.7

Query: Look at this compound and give its reported growth. CC[C@]1(O)CC2CN(CCc3c([nH]c4ccccc34)C(C(=O)OC)(c3cc4c(cc3OC)N(C=O)[C@H]3[C@@](O)(C(=O)OC)[C@H](OC(C)=O)[C@]5(CC)[C@@H]6C[C@@H]6CN6CC[C@]43[C@@H]65)C2)C1 (stereo not given in full)
Reply: 23.1

* * *

test system: NCI-H460 lung; experiment: NCI-60 one-dose screen, 48 h; conditions: 10 µM unless noted
About 83,000 compounds went through this panel and 20% of them were active in at least one assay; those are over-represented in the sample as a whole. The source made the active and inactive calls. The calls were made as follows: active = growth percent below 10; inactive = the rest.
Could you please pick one outcome from this set? True = active, False = inactive

{"Compound": "COc1ccc(-c2cc(-c3cc(OC)c(OC)c(OC)c3)c(C#N)c(=O)n2CCCCC(=O)O)cc1", "Label Class": "False"}
{"Compound": "CCOC(=O)C1=C(C)NC(=O)NC1c1c(Cl)n(-c2ccccc2)c2ccccc12 (centres undefined)", "Label Class": "False"}
{"Compound": "CC(Sc1ccccc1)C(=O)O (centres undefined)", "Label Class": "False"}

Query: Recorded test call requested for OCc1cc(CN2CCCCC2)c(O)c2ncccc12
Reply: False

Query: Recorded test call requested for Cc1ccc(-c2nc([P+](c3ccccc3)(c3ccccc3)c3ccccc3)c(Nc3ccccc3)o2)cc1
Reply: True

Query: Recorded test call requested for Cc1nc(-n2[nH]c(=O)ccc2=O)sc1N=Nc1ccccc1
Reply: False

Query: Recorded test call requested for O=C1/C(=C/c2cn(-c3ccccc3)nc2-c2ccccc2)SC(=S)N1c1ccccc1
Reply: False

Query: Recorded test call requested for CCOC(=O)c1nnn(Cc2cc(=O)oc3c2ccc2ccccc23)c1C
Reply: False

* * *

test system: K-562 leukemia; test: NCI-60 one-dose screen, 48 h; conditions: 10 µM unless noted
The panel holds about 83,000 compounds, 20% with a hit somewhere; the sample as a whole holds those more often. Active and inactive are the calls of the source. How the source made its calls: active means growth percent below 10; inactive means the rest.
Could you please pick one outcome from this set? active, inactive

Worked set:
{"Compound": "COc1ccc(-c2cc(-c3cccc(Cl)c3)c(C#N)c(=O)[nH]2)c(OC)c1", "Label Class": "inactive"}
{"Compound": "CCCCCCCCn1ccc2cc(NC(=O)CN3CCN(c4nc(C)cc(N5CCCCC5)n4)CC3)ccc21", "Label Class": "inactive"}

Query: Recorded test call requested for CC12OC(CC(O)C1O)n1c3ccccc3c3c4c(c5c6ccccc6n2c5c31)C(=O)N(CCN1CCOCC1)C4=O (stereo unspecified)
Reply: active

Query: Recorded test call requested for Cn1cc(C2=C(c3cccc4ccccc34)C(=O)NC2=O)c2cc(Br)ccc21
Reply: inactive

Query: Recorded test call requested for CCOC(=O)C1=C(C)N=C2SC=C(c3ccc(F)cc3)N2[C@H]1c1cn(-c2ccccc2)nc1-c1ccc(Cl)cc1
Reply: inactive

Query: Recorded test call requested for CCOC(=O)c1nnn(Cc2cc(=O)oc3c2ccc2ccccc23)c1C
Reply: inactive

Query: Recorded test call requested for Nc1nc2ccccc2c2c(=O)c3ccc(Cl)cc3sc12
Reply: inactive

Query: Recorded test call requested for Cc1ccc2[nH]c(=S)[nH]c(=O)c2c1
Reply: inactive

Query: Recorded test call requested for O=C(NNc1ccccc1)C1CCCN1 (stereo unspecified)
Reply: inactive

Query: Recorded test call requested for CCN(CC)CC#CCOC(=O)[C@]1(C)CCC[C@]2(C)c3ccc(C(C)C)cc3CC[C@@H]12
Reply: inactive

Query: Recorded test call requested for Nc1n[nH]c2cccc(C#Cc3cccc(C(=O)Nc4ccc(CN5CCOCC5)c(C(F)(F)F)c4)c3)c12
Reply: active

Query: Recorded test call requested for CC(=O)N1N=C(c2ccc(Nc3nc(Nc4ccc(F)cc4)nc(Nc4ccc(Cl)cc4)n3)cc2)CC1c1ccc(N(C)C)cc1 (stereo unspecified)
Reply: inactive

Query: Recorded test call requested for Cc1nc(Nc2ncc(C(=O)Nc3c(C)cccc3Cl)s2)cc(N2CCN(CCO)CC2)n1
Reply: active

Query: Recorded test call requested for CC(=O)N1N=C(c2ccc(Nc3nc(Nc4ccc(F)cc4)nc(Nc4ccc(F)cc4)n3)cc2)CC1c1ccccc1 (stereo unspecified)
Reply: inactive

Query: Recorded test call requested for Fc1ccccc1-c1cnn2cc(-c3ccccc3)cnc12
Reply: inactive

Query: Recorded test call requested for C#CCOCC1CN(C)C(=O)O1 (stereo unspecified)
Reply: inactive

Query: Recorded test call requested for Nc1c(C(=O)Nc2ccncc2)sc2nc3c(cc12)CCCCCCCC3
Reply: active

Query: Recorded test call requested for NC(=O)c1c(NC(=O)/C=C/c2cccs2)sc2c1CCC(=O)C2
Reply: inactive

Query: Recorded test call requested for Nc1ncc(-c2ccc3ncnc(N4CCc5ccc(Cl)cc54)c3c2)cc1C(F)(F)F
Reply: inactive

Query: Recorded test call requested for c1ccc(-c2cc(-c3cc(-c4ccccc4)on3)no2)cc1
Reply: inactive

Query: Recorded test call requested for Cc1ccc(/C=C/c2c(C(=O)/C=C/c3ccccc3)c(C)nc3ccccc23)cc1
Reply: active

* * *

test system: SF-268 CNS; experiment: NCI-60 one-dose screen, 48 h; conditions: 10 µM unless noted
Compounds without any hit were thinned out: in the full panel of roughly 83,000, 20% have a hit. Activity calls are given as the source filed them. How the source made its calls: active means growth percent below 10; inactive means the rest.
Could you please pick one outcome from this set? active, inactive

{"Molecule": "COc1ccc(/C(C)=C(\\c2ccc(OCCN3CCOCC3)cc2)c2ccc(OC(=O)C3CCCCC3)cc2)cc1", "Target Desc": "SF-268 CNS", "Label Class": "inactive"}
{"Molecule": "CCCCCCCC/C=C\\CCCCCCCCOc1ccccc1CC(=O)NCC[N+]1(C)CCOCC1", "Target Desc": "SF-268 CNS", "Label Class": "inactive"}
{"Molecule": "CCOC(=O)c1cnn(CC(O)CC)c1NC(=O)NCc1ccccc1C(F)(F)F (configuration not stated)", "Target Desc": "SF-268 CNS", "Label Class": "inactive"}
{"Molecule": "COc1cc(-c2nn(-c3cccc(NC(=O)CCN4CCN(C)CC4)c3)cc2-c2ccncc2)ccc1Cl", "Target Desc": "SF-268 CNS", "Label Class": "inactive"}
{"Molecule": "Cn1cc(-c2nc3c(F)cc4[nH]ncc4c3c3c2CCCC3)c(C(F)F)n1", "Target Desc": "SF-268 CNS", "Label Class": "inactive"}

Query: Recorded test call requested for O=C(NNc1ccccc1)c1ncc[nH]1
Reply: inactive

Query: Recorded test call requested for COC(=O)c1c2c(c(C)[n+]([O-])c1C)C(=O)C(NCCN1CCOCC1)=CC2=O
Reply: inactive

Query: Recorded test call requested for CCOC(=O)C(=CCC(C)C)C(=O)OCC
Reply: inactive

Query: Recorded test call requested for C=C(CN1CC=CCC1)[C@@H]1CC[C@]2(COC(C)=O)CC[C@]3(C)[C@H](CC[C@@H]4[C@@]5(C)CC[C@H](O)C(C)(C)[C@@H]5CC[C@]43C)[C@@H]12
Reply: inactive

Query: Recorded test call requested for COc1cc2c(cc1OCCCOC1=C=C=C(c3ccc4c(c3)c3cc(-c5ccc(OCCCOc6cc7c(cc6OC)C(=O)N6CCC[C@H]6C=N7)cc5)ccc3n4S(=O)(=O)c3ccc(C)cc3)C=C1)N=C[C@@H]1CCCN1C2=O
Reply: active

Just for reference, PubChem BioAssay (NCI) is where these values come from.
